Data origin, for the record: ChEMBL document CHEMBL3091361

Reported inhibition at 48 h, 50 ug/ml values for a set of compounds
Test: Cytotoxicity against human HSF cells at 50 ug/ml after 48 hrs by BrdU incorporation assay relative to control
Assay type: cell-based
Conditions: read-out: GI
Numbers only; they are read as %.

Before answering, review these 4 worked examples.
{"columns": ["smilesText", "readingUnit", "inhibition at 48 h, 50 ug/ml"],
 "data": [
  ["CCOC(=O)C/C(=N\\N=C1/NCCN1c1cccc(Cl)c1)C(=O)OCC", "%", 90],
  ["CCOC(=O)Cc1nnc2n(c1=O)CCN2c1ccc(Cl)c(Cl)c1", "%", 60],
  ["CCOC(=O)Cc1nnc2n(c1=O)CCN2c1cccc(Cl)c1", "%", 10],
  ["CCOC(=O)Cc1nnc2n(c1=O)CCN2c1ccc(Cl)cc1", "%", 75]
]}

Qu. Please give the measured inhibition at 48 h, 50 ug/ml for this compound: CCOC(=O)Cc1nnc2n(c1=O)CCN2c1ccc(C)cc1
Ans. 75

Qu. Please give the measured inhibition at 48 h, 50 ug/ml for this compound: CCOC(=O)C/C(=N\N=C1/NCCN1c1ccc(Cl)c(Cl)c1)C(=O)OCC
Ans. 90

Qu. Please give the measured inhibition at 48 h, 50 ug/ml for this compound: CCOC(=O)Cc1nnc2n(c1=O)CCN2c1ccccc1OC
Ans. 80

Qu. Please give the measured inhibition at 48 h, 50 ug/ml for this compound: CCOC(=O)Cc1nnc2n(c1=O)CCN2c1ccccc1
Ans. 50

Qu. Please give the measured inhibition at 48 h, 50 ug/ml for this compound: CCOC(=O)C/C(=N\N=C1/NCCN1c1ccc(C)cc1)C(=O)OCC
Ans. 80

Qu. Please give the measured inhibition at 48 h, 50 ug/ml for this compound: CCOC(=O)C/C(=N\N=C1/NCCN1c1ccc(Cl)cc1)C(=O)OCC
Ans. 90
